Molecular target: T1, human Claudin 18.2 (human, UniProt P56856-2 1-261)
T1 construct: whole, on cells
T1 sequence (looked up): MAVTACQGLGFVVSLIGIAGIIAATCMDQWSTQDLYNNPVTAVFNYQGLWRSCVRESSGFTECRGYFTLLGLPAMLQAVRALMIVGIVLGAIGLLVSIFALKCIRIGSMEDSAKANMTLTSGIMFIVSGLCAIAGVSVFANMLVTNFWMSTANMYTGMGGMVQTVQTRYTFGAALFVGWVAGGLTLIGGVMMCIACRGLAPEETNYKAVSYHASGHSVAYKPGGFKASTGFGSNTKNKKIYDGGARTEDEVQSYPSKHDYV
Assay: flow cytometry (iQue) on cells, antibody from 100 nM in 5-fold steps; cell line not named in Example 5
pEC50: −log10 of the molar value.

[
  {
    "Binder": "h18A9.v14 (antibody, V domains shown, Humanized; also called 18A9VLv1 + 18A9VHv4) VH: QVQLVQSGAEVKKPGSSVKVSCKASGYTFTNYLIDWVRQAPGQGLEWMGGINPGSGDTVYNEKFQGRVTLTADKSSMTAYMELSSLRSEDTAVYFCARRVRGNSFDSWGQGTLVTVSS VL: DIVMTQSPDSLAVSLGERATINCKSSQSLLNSGNQKNYLTWYQQKPGQPPKLLIYWASTRESGVPDRFSGSGSGKDFTLTISSLQAEDVAVYYCQNNYFYPLTFGGGTKVEIK",
    "pEC50": 9.26
  },
  {
    "Binder": "h18A9.v11 (antibody, V domains shown, Humanized; also called 18A9VLv1 + 18A9VHv1) VH: QVQLVQSGAEVKKPGSSVKVSCKPSGYAFTNYLIDWVRQAPGQGLEWMGGINPGSGDTVYNEKFQGRVTLTADKSSMTAYMELSSLRSEDTAVYFCARRVRGNSFDSWGQGTLVTVSS VL: DIVMTQSPDSLAVSLGERATINCKSSQSLLNSGNQKNYLTWYQQKPGQPPKLLIYWASTRESGVPDRFSGSGSGKDFTLTISSLQAEDVAVYYCQNNYFYPLTFGGGTKVEIK",
    "pEC50": 9.19
  },
  {
    "Binder": "h18A9.v15 (antibody, V domains shown, Humanized; also called 18A9VLv1 + 18A9VHv5) VH: QVQLVQSGAEVKKPGSSVKVSCKPSGYTFTNYLIDWVRQAPGQGLEWMGGINPGSGDTVYNEKFQGRVTITADESTSTAYMELSSLRSEDTAVYFCARRVRGNSFDSWGQGTLVTVSS VL: DIVMTQSPDSLAVSLGERATINCKSSQSLLNSGNQKNYLTWYQQKPGQPPKLLIYWASTRESGVPDRFSGSGSGKDFTLTISSLQAEDVAVYYCQNNYFYPLTFGGGTKVEIK",
    "pEC50": 8.85
  },
  {
    "Binder": "h15F9.v25 (antibody, V domains shown, Humanized; also called 15F9VLv2 + 15F9VHv5) VH: QIQLVQSGSELKKPGASVKVSCKASGYTFTNYGINWVRQAPGQGLEWMGWINPNTGETTYAEGFTGRFVLSWDTSVSTAYLQISSLKAEDTAVYFCARLYYGNRFDSWGQGTLVTVSS VL: DIVMTQSPDSLAVSLGERATINCKSSQSLLNSGNQRNYLAWYQQKPGQPPKLLIYWASTRESGVPDRFSGSGSGTDFTLTISSLQAEDVAVYYCQQAYYYPLTFGGGTKVEIK",
    "pEC50": 9.11
  },
  {
    "Binder": "h15F9.v15 (antibody, V domains shown, Humanized; also called 15F9VLv1 + 15F9VHv5) VH: QIQLVQSGSELKKPGASVKVSCKASGYTFTNYGINWVRQAPGQGLEWMGWINPNTGETTYAEGFTGRFVLSWDTSVSTAYLQISSLKAEDTAVYFCARLYYGNRFDSWGQGTLVTVSS VL: DIVMTQSPDSLAVSLGERATINCKSSQSLLNSGNQRNYLTWYQQKPGQPPKLLIYWASTRESGVPDRFSGSGSGTDFTLTISSLQAEDVAVYYCQNAYYYPLTFGGGTKVEIK",
    "pEC50": 8.78
  },
  {
    "Binder": "18D10.V11 (antibody, V domains shown, Humanized; also called 18D10VLv1 + 18D10VHv1) VH: QVQLQESGPGLVKPSETLSLTCTVSGYSITSNYAWNWIRQPPGKGLEWIGYINYSGNTNYNPSLKSRVTISRDTSKNQFSLKLSSVTAADTAVYYCATSYYGNSFIYWGQGTLVTVSS VL: DIVMTQSPDSLAVSLGERATINCKSSQSLLNSGNQKNYLTWYQQKPGQPPKLLIYWASTRESGVPDRFSGSGSGTDFTLTISSLQAEDVAVYYCQNAYSFPWTFGQGTKVEIK",
    "pEC50": 8.95
  },
  {
    "Binder": "18D10.V15 (antibody, V domains shown, Humanized; also called 18D10VLv1 + 18D10VHv5) VH: QVQLQESGPGLVKPSETLSLTCTVSGGSISSNYAWNWIRQPPGKGLEWIGYINYSGNTAYNPSLKSRVTISRDTSKNQFSLKLSSVTAADTAVYYCATSYYGNSFIYWGQGTLVTVSS VL: DIVMTQSPDSLAVSLGERATINCKSSQSLLNSGNQKNYLTWYQQKPGQPPKLLIYWASTRESGVPDRFSGSGSGTDFTLTISSLQAEDVAVYYCQNAYSFPWTFGQGTKVEIK",
    "pEC50": 8.57
  },
  {
    "Binder": "h18A9.v12 (antibody, V domains shown, Humanized; also called 18A9VLv1 + 18A9VHv2) VH: QVQLVQSGAEVKKPGSSVKVSCKPSGYTFTNYLIDWVRQAPGQGLEWMGGINPGSGDTVYNEKFQGRVTLTADESTSTAYMELSSLRSEDTAVYFCARRVRGNSFDSWGQGTLVTVSS VL: DIVMTQSPDSLAVSLGERATINCKSSQSLLNSGNQKNYLTWYQQKPGQPPKLLIYWASTRESGVPDRFSGSGSGKDFTLTISSLQAEDVAVYYCQNNYFYPLTFGGGTKVEIK",
    "pEC50": 9.04
  }
]
